experiment: Drug level in Sprague-Dawley rat blood at 1 mg/kg, intranasal after 10 mins by LC-MS/MS analysis; format: ADME, organism-based; set-up: dose 1 mg/kg; details: whole blood, inhaled or intranasal
readout_type: concentration at 10 min (nM)
Respond numerically; units are nM and should not be typed.

For the molecule shown here, CCCCCC[C@H](N)C(=O)N[C@@H](Cc1ccc(O)cc1)C(=O)NCC(=O)NCC(=O)N[C@@H](Cc1ccccc1)C(=O)N[C@@H](CC(C)C)C(N)=O , give the reported concentration at 10 min.
6.53

----------
assay: Drug level in Sprague-Dawley rat brain at 1 mg/kg, intranasal after 10 mins by LC-MS/MS analysis; format: ADME, organism-based; parameters: dose 1 mg/kg; settings: inhaled or intranasal, read-out: Drug uptake
readout_type: concentration at 10 min
Reply with the number, then its unit.

# lookup: concentration at 10 min of CCCCCC[C@H](N)C(=O)N[C@@H](Cc1ccc(O)cc1)C(=O)NCC(=O)NCC(=O)N[C@@H](Cc1ccccc1)C(=O)N[C@@H](CC(C)C)C(N)=O
13.5 nM

----------
assay: Drug level in Sprague-Dawley rat olfactory bulb at 1 mg/kg, intranasal after 10 mins by LC-MS/MS analysis; type: ADME, organism-based; design: dose 1 mg/kg; details: inhaled or intranasal, read-out: Drug uptake
readout_type: concentration at 10 min

Report concentration at 10 min for CCCCCC[C@H](N)C(=O)N[C@@H](Cc1ccc(O)cc1)C(=O)NCC(=O)NCC(=O)N[C@@H](Cc1ccccc1)C(=O)N[C@@H](CC(C)C)C(N)=O please.
59 nM

----------
assay: Stability of the compound in human plasma assessed as half life by HPLC analysis; type: ADME, cell-free
readout_type: half-life (min)
# output: bare number, implied unit min

Find the recorded half-life belonging to CCCCCC[C@H](N)C(=O)N[C@@H](Cc1ccc(O)cc1)C(=O)NCC(=O)NCC(=O)N[C@@H](Cc1ccccc1)C(=O)N[C@@H](CC(C)C)C(N)=O and report it.
8.9

----------
experiment: Apparent permeability across human Caco2 cells by LC-MS/MS analysis; assay type: ADME, cell-based; conditions: Caco-2
Non-standard residues stand in square brackets, D forms with d. Residues, ends and D or L forms follow the SMILES beside them. Gly(decyl) = CCCCCCCCCC[C@H](N)C(=O)O; Aoc(2) = CCCCCC[C@H](N)C(=O)O
Output label 1 for records whose Papp is lower than 1 ×10⁻⁶ cm/s, label 0 for records at or above 1 ×10⁻⁶ cm/s.

The following compounds have reported results that may help.
| compound | cat |
| --- | --- |
| CCCCCC[C@H](NC(C)=O)C(=O)N[C@@H](Cc1ccc(O)cc1)C(=O)NCC(=O)NCC(=O)N[C@@H](Cc1ccccc1)C(=O)N[C@@H](CC(C)C)C(N)=O (Ac-[Aoc(2)]YGGFL-NH2) | label 0 |
| CC(C)C[C@H](NC(=O)[C@H](Cc1ccccc1)NC(=O)CNC(=O)CNC(=O)[C@@H](N)Cc1ccc(O)cc1)C(=O)O | label 1 |
| CCCCCC[C@H](N)C(=O)N[C@@H](Cc1ccc(O)cc1)C(=O)NCC(=O)NCC(=O)N[C@@H](Cc1ccccc1)C(=O)N[C@@H](CC(C)C)C(N)=O | label 0 |
| CCCCCC[C@H](NC(=O)[C@H](CC(C)C)NC(=O)[C@H](Cc1ccccc1)NC(=O)CNC(=O)CNC(=O)[C@@H](N)Cc1ccc(O)cc1)C(N)=O (H-YGGFL[Aoc(2)]-NH2) | label 1 |
| CCCCCC[C@H](NC(=O)[C@H](CC(C)C)NC(=O)[C@H](Cc1ccccc1)NC(=O)CNC(=O)CNC(=O)[C@H](Cc1ccc(O)cc1)NC(C)=O)C(N)=O (Ac-YGGFL[Aoc(2)]-NH2) | label 1 |

Proceed to the following item.
Find out if reported Papp for CCCCCCCCCC[C@H](N)C(=O)N[C@@H](Cc1ccc(O)cc1)C(=O)NCC(=O)NCC(=O)N[C@@H](Cc1ccccc1)C(=O)N[C@@H](CC(C)C)C(N)=O (H-[Gly(decyl)]YGGFL-NH2) is less than 1 ×10⁻⁶ cm/s
label 0
